System: K86415-001-R-J1-PDC complex spheroids, viability
TEST_DESCRIPTION: Anticancer human tumor K86415-001-R-J1-PDC patient-derived lung adenocarcinoma cell line growth inhibition [RAS]
CONDITION_SET: second compound 0.003 µM; first compound 0.0316 µM; stronger effect = lower value
For each record, check the reported viability, T/C: if it is below 10% write 1, else write 0.

Does CCN1CCN(Cc2ccc(Nc3ncc(F)c(-c4cc(F)c5nc(C)n(C(C)C)c5c4)n3)nc2)CC1 + CCn1c(-c2cccnc2C(C)OC)c2c3cc(ccc31)N1CCOC(CC(NC(=O)C(C(C)C)N(C)C(=O)C3(F)CCN(C(=O)C#CC(C)(C)N(C)C)CC3)C(=O)N3CCCC(N3)C(=O)OCC(C)(C)C2)C1 have viability, T/C strictly under 10%?
0

Does CC1(O)CCCC1n1c(=O)c(C(F)F)cc2cnc(NC3CCN(S(C)(=O)=O)CC3)nc21 (configuration not stated) + CCn1c(-c2cccnc2C(C)OC)c2c3cc(ccc31)N1CCOC(CC(NC(=O)C(C(C)C)N(C)C(=O)C3(F)CCN(C(=O)C#CC(C)(C)N(C)C)CC3)C(=O)N3CCCC(N3)C(=O)OCC(C)(C)C2)C1 have viability, T/C strictly under 10%?
0

Does C=CC(=O)N1CCN(c2nc(OCC3CCCN3C)nc3c(F)c(-c4nc(N)cc(C)c4C(F)(F)F)c(Cl)cc23)C(C)C1 (configuration not stated) + CCn1c(-c2cc(N3CCN(C)CC3)cnc2C(C)OC)c2c3cc(ccc31)-c1csc(n1)CC(NC(=O)C1CC1C)C(=O)N1CCCC(N1)C(=O)OCC(C)(C)C2 have viability, T/C strictly under 10%?
1

Does NC1c2ccccc2OC12CCN(c1cnc3c(N4CCCc5ncccc54)n[nH]c3n1)CC2 (configuration not stated) + CCn1c(-c2cccnc2C(C)OC)c2c3cc(ccc31)N1CCOC(CC(NC(=O)C(C(C)C)N(C)C(=O)C3(F)CCN(C(=O)C#CC(C)(C)N(C)C)CC3)C(=O)N3CCCC(N3)C(=O)OCC(C)(C)C2)C1 have viability, T/C strictly under 10%?
1

Does CC(C)NCC(C(=O)N1CCN(c2ncnc3c2C(C)CC3O)CC1)c1ccc(Cl)cc1 (configuration not stated) + CCn1c(-c2cccnc2C(C)OC)c2c3cc(ccc31)N1CCOC(CC(NC(=O)C(C(C)C)N(C)C(=O)C3(F)CCN(C(=O)C#CC(C)(C)N(C)C)CC3)C(=O)N3CCCC(N3)C(=O)OCC(C)(C)C2)C1 have viability, T/C strictly under 10%?
0

Does Cc1nc(N2CCC3(CC2)COC(C)C3N)c(CO)nc1Sc1ccnc(N)c1Cl (configuration not stated) + CCn1c(-c2cc(N3CCN(C)CC3)cnc2C(C)OC)c2c3cc(ccc31)-c1csc(n1)CC(NC(=O)C1CC1C)C(=O)N1CCCC(N1)C(=O)OCC(C)(C)C2 have viability, T/C strictly under 10%?
0

Does O=C(c1ccc(F)c(F)c1Nc1ccc(I)cc1F)N1CC(O)([C@@H]2CCCCN2)C1 + CCn1c(-c2cccnc2C(C)OC)c2c3cc(ccc31)N1CCOC(CC(NC(=O)C(C(C)C)N(C)C(=O)C3(F)CCN(C(=O)C#CC(C)(C)N(C)C)CC3)C(=O)N3CCCC(N3)C(=O)OCC(C)(C)C2)C1 have viability, T/C strictly under 10%?
1

---

Test system: K86415-001-R-J1-PDC complex spheroids, viability
TEST_DESCRIPTION: Anticancer human tumor K86415-001-R-J1-PDC cell line growth inhibition [RAS]; active = viability on the fitted dose curve at most 10% of control; inactive = the rest;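 further: spheroids exposed to agents for seven days before readout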
CONDITION_SET: second compound 0.316 µM; first compound 0.0316 µM
Choose the fitting class; nothing outside active, inactive is accepted.

Can you look up the reported call for CC(C)NCC(C(=O)N1CCN(c2ncnc3c2C(C)CC3O)CC1)c1ccc(Cl)cc1 (centres undefined) + C#Cc1c(F)ccc2cc(O)cc(-c3ncc4c(N5CC6CCC(C5)N6)nc(OCC56CCCN5CC(F)C6)nc4c3F)c12 for me?
inactive

Can you look up the reported call for CC1(O)CCCC1n1c(=O)c(C(F)F)cc2cnc(NC3CCN(S(C)(=O)=O)CC3)nc21 (centres undefined) + C#Cc1c(F)ccc2cc(O)cc(-c3ncc4c(N5CC6CCC(C5)N6)nc(OCC56CCCN5CC(F)C6)nc4c3F)c12 for me?
inactive

Can you look up the reported call for C=CC(=O)Nc1cc(Nc2nccc(-c3cn(C)c4ccccc34)n2)c(OC)cc1N(C)CCN(C)C + C=CC(=O)N1CCN(c2nc(OCC3CCCN3C)nc3c(F)c(-c4nc(N)cc(C)c4C(F)(F)F)c(Cl)cc23)C(C)C1 for me?
active

Can you look up the reported call for C[C@@H](NC(=O)c1ncnc(N)c1Cl)c1ncc(C(=O)Nc2cc(C(F)(F)F)c(Cl)cn2)s1 + C#Cc1c(F)ccc2cc(O)cc(-c3ncc4c(N5CC6CCC(C5)N6)nc(OCC56CCCN5CC(F)C6)nc4c3F)c12 for me?
inactive

Can you look up the reported call for Cc1nc(N2CCC3(CC2)COC(C)C3N)c(CO)nc1Sc1ccnc(N)c1Cl (centres undefined) + C#Cc1c(F)ccc2cc(O)cc(-c3ncc4c(N5CC6CCC(C5)N6)nc(OCC56CCCN5CC(F)C6)nc4c3F)c12 for me?
inactive

Can you look up the reported call for CC(=O)OC12COC1CC(O)C1(C)C(=O)C(O)C3=C(C)C(OC(=O)C(O)C(NC(=O)OC(C)(C)C)c4ccccc4)CC(O)(C(OC(=O)c4ccccc4)C21)C3(C)C (centres undefined) + C=CC(=O)N1CCN(c2nc(OCC3CCCN3C)nc3c(F)c(-c4nc(N)cc(C)c4C(F)(F)F)c(Cl)cc23)C(C)C1 for me?
active

Can you look up the reported call for C=CC(=O)Nc1cc(Nc2nccc(-c3cn(C)c4ccccc34)n2)c(OC)cc1N(C)CCN(C)C + C#Cc1c(F)ccc2cc(O)cc(-c3ncc4c(N5CC6CCC(C5)N6)nc(OCC56CCCN5CC(F)C6)nc4c3F)c12 for me?
inactive

Can you look up the reported call for Cc1nc(N2CCC3(CC2)COC(C)C3N)c(CO)nc1Sc1ccnc(N)c1Cl (centres undefined) + C=CC(=O)N1CCN(c2nc(OCC3CCCN3C)nc3c(F)c(-c4nc(N)cc(C)c4C(F)(F)F)c(Cl)cc23)C(C)C1 for me?
active

Can you look up the reported call for CC1(O)CCCC1n1c(=O)c(C(F)F)cc2cnc(NC3CCN(S(C)(=O)=O)CC3)nc21 (centres undefined) + C=CC(=O)N1CCN(c2nc(OCC3CCCN3C)nc3c(F)c(-c4nc(N)cc(C)c4C(F)(F)F)c(Cl)cc23)C(C)C1 for me?
inactive

---

Tested on: K86415-001-R-J1-PDC complex spheroids, viability
TEST_DESCRIPTION: Anticancer human tumor K86415-001-R-J1-PDC cell line growth inhibition [RAS]; active = viability on the fitted dose curve at most 10% of control; inactive = the rest;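 further: spheroids exposed to agents for seven days before readout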
CONDITION_SET: second compound 0.003 µM; first compound 0.0316 µM
Text: RAS pathway inhibitors in Combinations in Complex Spheroids A high-throughput screen of multi-cell type tumor spheroids was designed to identify active combinations of RAS pathway inhibitors and targeted small molecules. Complex spheroids include a stromal component modeled by human endothelial cells (HUVEC) and fibroblasts modeled by human mesenchymal stem cells (MSCs). […] Compounds. […] If the clinical Cmax for an agent had not been determined, the highest concentration tested was 10 microM. […]
Choose the fitting class; nothing outside active, inactive is accepted.

Can you look up the reported call for C=CC(=O)N1CCN(c2nc(OCC3CCCN3C)nc3c(F)c(-c4nc(N)cc(C)c4C(F)(F)F)c(Cl)cc23)C(C)C1 (stereo not drawn) + CCn1c(-c2cccnc2C(C)OC)c2c3cc(ccc31)N1CCOC(CC(NC(=O)C(C(C)C)N(C)C(=O)C3(F)CCN(C(=O)C#CC(C)(C)N(C)C)CC3)C(=O)N3CCCC(N3)C(=O)OCC(C)(C)C2)C1 for me?
inactive

Can you look up the reported call for Nc1ccn(C2OC(CO)C(O)C2(F)F)c(=O)n1 (stereo not drawn) + CCn1c(-c2cc(N3CCN(C)CC3)cnc2C(C)OC)c2c3cc(ccc31)-c1csc(n1)CC(NC(=O)C1CC1C)C(=O)N1CCCC(N1)C(=O)OCC(C)(C)C2 for me?
inactive

Can you look up the reported call for CC(C)n1nc(-c2ccc3oc(N)nc3c2)c2c(N)ncnc21 + CCn1c(-c2cccnc2C(C)OC)c2c3cc(ccc31)N1CCOC(CC(NC(=O)C(C(C)C)N(C)C(=O)C3(F)CCN(C(=O)C#CC(C)(C)N(C)C)CC3)C(=O)N3CCCC(N3)C(=O)OCC(C)(C)C2)C1 for me?
active

Can you look up the reported call for CC(C)n1nc(-c2ccc3oc(N)nc3c2)c2c(N)ncnc21 + CCn1c(-c2cc(N3CCN(C)CC3)cnc2C(C)OC)c2c3cc(ccc31)-c1csc(n1)CC(NC(=O)C1CC1C)C(=O)N1CCCC(N1)C(=O)OCC(C)(C)C2 for me?
inactive

Can you look up the reported call for NC1c2ccccc2OC12CCN(c1cnc3c(N4CCCc5ncccc54)n[nH]c3n1)CC2 (stereo not drawn) + CCn1c(-c2cc(N3CCN(C)CC3)cnc2C(C)OC)c2c3cc(ccc31)-c1csc(n1)CC(NC(=O)C1CC1C)C(=O)N1CCCC(N1)C(=O)OCC(C)(C)C2 for me?
active

Can you look up the reported call for CCC(CC)c1cc(NC2CCC(N)C2)n2nccc2n1 (stereo not drawn) + CCn1c(-c2cccnc2C(C)OC)c2c3cc(ccc31)N1CCOC(CC(NC(=O)C(C(C)C)N(C)C(=O)C3(F)CCN(C(=O)C#CC(C)(C)N(C)C)CC3)C(=O)N3CCCC(N3)C(=O)OCC(C)(C)C2)C1 for me?
inactive

Can you look up the reported call for CCC(CC)c1cc(NC2CCC(N)C2)n2nccc2n1 (stereo not drawn) + CCn1c(-c2cc(N3CCN(C)CC3)cnc2C(C)OC)c2c3cc(ccc31)-c1csc(n1)CC(NC(=O)C1CC1C)C(=O)N1CCCC(N1)C(=O)OCC(C)(C)C2 for me?
inactive

Can you look up the reported call for CC(Nc1ccc2c(c1)OCCn1cc(N3C(=O)OCC3C(F)F)nc1-2)C(N)=O (stereo not drawn) + CCn1c(-c2cc(N3CCN(C)CC3)cnc2C(C)OC)c2c3cc(ccc31)-c1csc(n1)CC(NC(=O)C1CC1C)C(=O)N1CCCC(N1)C(=O)OCC(C)(C)C2 for me?
inactive
